assay-protocol: Selectivity ratio of IC50 for TGH to IC50 for rat FAAH
measured-metric: Ratio IC50

The cases that follow already have their Ratio IC50 on record.
chemical-structure: O=C(O)c1coc(C(=O)CCCCCCc2ccccc2)n1
value: 5

chemical-structure: O=C(CCCCCCc1ccccc1)c1nc(-c2ccncc2)co1
value: 5

chemical-structure: N#Cc1coc(C(=O)CCCCCCc2ccccc2)n1
value: 1.5

(P) O=C(CCCCCCc1ccccc1)c1nc(-c2ccccn2)co1
(Q) O=C(CCCCCCc1ccccc1)c1ncc(C(F)(F)F)o1
**Q:** In the pair P and Q , the larger recorded Ratio IC50 belongs to which? Answer by stating the label of the chosen item.
**A:** P
